- System: NCI-H23
- experiment-notes: relative viability (nuclei count vs DMSO), 5 days (fraction); higher = more cells survive
- condition-context: first compound 0.02 µM

- compound: "CC(=O)O[C@@]12CO[C@@H]1C[C@H](O)[C@@]1(C)C(=O)[C@H](O)C3=C(C)[C@@H](OC(=O)[C@H](O)[C@@H](NC(=O)OC(C)(C)C)c4ccccc4)C[C@@](O)([C@@H](OC(=O)c4ccccc4)[C@H]21)C3(C)C [Docetaxel] + Nc1ncn([C@H]2C[C@H](O)[C@@H](CO)O2)c(=O)n1 [Decitabine] (partner 2 µM)"
  relative viability: 0.157
- compound: "CC(=O)O[C@@]12CO[C@@H]1C[C@H](O)[C@@]1(C)C(=O)[C@H](O)C3=C(C)[C@@H](OC(=O)[C@H](O)[C@@H](NC(=O)OC(C)(C)C)c4ccccc4)C[C@@](O)([C@@H](OC(=O)c4ccccc4)[C@H]21)C3(C)C [Docetaxel] + Cc1cc(Nc2cc(N3CCN(C)CC3)nc(Sc3ccc(NC(=O)C4CC4)cc3)n2)n[nH]1 [Tozasertib] (partner 0.1 µM)"
  relative viability: 0.166
- compound: "CC(=O)O[C@@]12CO[C@@H]1C[C@H](O)[C@@]1(C)C(=O)[C@H](O)C3=C(C)[C@@H](OC(=O)[C@H](O)[C@@H](NC(=O)OC(C)(C)C)c4ccccc4)C[C@@](O)([C@@H](OC(=O)c4ccccc4)[C@H]21)C3(C)C [Docetaxel] + COc1cc2c(Oc3ccc(NC(=O)C4(C(=O)Nc5ccc(F)cc5)CC4)cc3F)ccnc2cc1OCCCN1CCOCC1 [Foretinib] (partner 0.25 µM)"
  relative viability: 0.147
- compound: "CC(=O)O[C@@]12CO[C@@H]1C[C@H](O)[C@@]1(C)C(=O)[C@H](O)C3=C(C)[C@@H](OC(=O)[C@H](O)[C@@H](NC(=O)OC(C)(C)C)c4ccccc4)C[C@@](O)([C@@H](OC(=O)c4ccccc4)[C@H]21)C3(C)C [Docetaxel] + O=C(c1cc(Cc2n[nH]c(=O)c3ccccc23)ccc1F)N1CCN(C(=O)C2CC2)CC1 [Olaparib] (partner 8 µM)"
  relative viability: 0.105

###

- Test system: NCI-H647
- experiment-notes: relative viability (nuclei count vs DMSO), 5 days (fraction); higher = more cells survive
- condition-context: first compound 0.253 µM

- molecule: "O=c1[nH]c2ccccc2n1C1CCN(CCCC(c2ccc(F)cc2)c2ccc(F)cc2)CC1 [Pimozide] + CS(=O)(=O)N1CCN(Cc2cc3nc(-c4cccc5[nH]ncc45)nc(N4CCOCC4)c3s2)CC1 [Pictilisib] (partner 1 µM)"
  relative viability: 0.39
- molecule: "Cc1cnc(-c2cnc(NCCNc3ccc(C#N)cn3)nc2-c2ccc(Cl)cc2Cl)[nH]1 + Nc1ncn([C@H]2C[C@H](O)[C@@H](CO)O2)c(=O)n1 [Decitabine] (partner 2 µM)"
  relative viability: 0.36
- molecule: "O=c1[nH]c2ccccc2n1C1CCN(CCCC(c2ccc(F)cc2)c2ccc(F)cc2)CC1 [Pimozide] + C[C@]1(O)C[C@@H](c2nc(-c3ccc4ccc(-c5ccccc5)nc4c3)c3c(N)nccn32)C1 [Linsitinib] (partner 1 µM)"
  relative viability: 1.06
- molecule: "Cc1cnc(-c2cnc(NCCNc3ccc(C#N)cn3)nc2-c2ccc(Cl)cc2Cl)[nH]1 + CS(=O)(=O)N1CCN(Cc2cc3nc(-c4cccc5[nH]ncc45)nc(N4CCOCC4)c3s2)CC1 [Pictilisib] (partner 1 µM)"
  relative viability: 0.45
